EXPERIMENTAL_CONDITIONS: in isopropyl acetate, 288.15 K
OBSERVED_PROPERTY: solubility (mole fraction)
Just the number, please, no unit attached.

IN: Looking for the measured solubility (mole fraction) of "Sc1nc2ccccc2[nH]1" , can you help?
OUT: 0.00255

* * *

EXPERIMENTAL_CONDITIONS: in isobutanol, 288.15 K
OBSERVED_PROPERTY: solubility (mole fraction)
Just the number, please, no unit attached.

IN: Looking for the measured solubility (mole fraction) of "Sc1nc2ccccc2[nH]1" , can you help?
OUT: 0.0046

* * *

EXPERIMENTAL_CONDITIONS: in 2-ethoxyethanol, 288.15 K
OBSERVED_PROPERTY: solubility (mole fraction)
Just the number, please, no unit attached.

IN: Looking for the measured solubility (mole fraction) of "Sc1nc2ccccc2[nH]1" , can you help?
OUT: 0.0583

Just for reference, BigSolDB 2.1 is where these values come from.
